Target: recombinant guanylate cyclase reporter cell line (Rattus norvegicus, UniProt P19686+P20595)
Construct: expressed in transfected cells
Sequence (P20595 1-619): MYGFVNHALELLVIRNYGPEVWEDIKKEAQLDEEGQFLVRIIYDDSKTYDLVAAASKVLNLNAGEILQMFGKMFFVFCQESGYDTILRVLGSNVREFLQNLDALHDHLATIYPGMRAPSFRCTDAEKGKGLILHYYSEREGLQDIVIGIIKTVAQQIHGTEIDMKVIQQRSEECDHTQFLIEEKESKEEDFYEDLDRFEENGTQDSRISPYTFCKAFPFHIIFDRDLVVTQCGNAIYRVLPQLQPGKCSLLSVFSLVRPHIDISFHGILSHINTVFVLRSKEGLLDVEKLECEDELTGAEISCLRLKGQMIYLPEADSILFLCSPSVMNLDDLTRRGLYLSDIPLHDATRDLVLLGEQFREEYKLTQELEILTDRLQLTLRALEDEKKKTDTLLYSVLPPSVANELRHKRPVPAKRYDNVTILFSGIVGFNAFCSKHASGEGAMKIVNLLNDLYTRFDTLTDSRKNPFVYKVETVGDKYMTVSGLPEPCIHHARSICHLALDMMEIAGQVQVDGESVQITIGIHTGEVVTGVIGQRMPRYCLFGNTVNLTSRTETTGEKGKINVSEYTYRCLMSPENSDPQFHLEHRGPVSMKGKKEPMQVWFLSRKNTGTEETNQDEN
Sequence (P19686 1-690): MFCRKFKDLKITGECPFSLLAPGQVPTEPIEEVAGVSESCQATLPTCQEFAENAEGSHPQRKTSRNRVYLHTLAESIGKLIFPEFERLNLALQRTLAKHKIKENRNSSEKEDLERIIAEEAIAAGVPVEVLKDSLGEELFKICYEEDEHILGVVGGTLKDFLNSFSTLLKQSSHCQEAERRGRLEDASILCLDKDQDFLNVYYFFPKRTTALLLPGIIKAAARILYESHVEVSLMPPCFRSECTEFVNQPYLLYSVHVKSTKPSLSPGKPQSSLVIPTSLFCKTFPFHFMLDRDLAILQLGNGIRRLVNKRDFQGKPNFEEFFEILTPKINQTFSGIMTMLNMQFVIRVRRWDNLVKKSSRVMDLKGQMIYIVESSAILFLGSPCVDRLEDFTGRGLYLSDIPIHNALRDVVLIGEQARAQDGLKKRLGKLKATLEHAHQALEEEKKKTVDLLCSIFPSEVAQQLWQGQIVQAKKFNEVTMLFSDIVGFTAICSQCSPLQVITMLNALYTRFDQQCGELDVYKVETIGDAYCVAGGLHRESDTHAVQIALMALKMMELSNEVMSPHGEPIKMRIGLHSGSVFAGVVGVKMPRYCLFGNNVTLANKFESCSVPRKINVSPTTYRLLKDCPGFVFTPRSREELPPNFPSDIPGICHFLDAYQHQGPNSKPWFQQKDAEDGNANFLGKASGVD
Experiment: Action on recombinant guanylate cyclase reporter cell line
Format: cell-based
Settings: in some cases mean values obtained from individual determinations
Structures can show the parent of a compound that is named as a salt.
endpoint: MEC (minimal effective concentration) (µM)

Some solved entries appear below for comparison.
Cc1nc2c(OCc3c(F)cccc3F)cccn2c1C(=O)NC(CO)CC(F)(F)F (racemic) [Example 100, trifluoroacetate] = 0.03
COCC(O)CNC(=O)c1c(C)nc2c(OCC3CCCCC3)cccn12 (stereo not drawn) = 0.3

1: Cc1nc2c(OCc3c(F)cccc3F)cccn2c1C(=O)NC(CO)c1ccc(F)cc1 (racemic) [Example 103, trifluoroacetate]
2: C[C@@H](CO)NC(=O)c1c(C(F)(F)F)nc2c(OCC3CCCCC3)cccn12
3: Cc1nc2c(OCC3CCCCC3)cccn2c1C(=O)NCCOCCO
4: CCCC[C@H](CO)NC(=O)c1c(C)nc2c(OCc3c(Cl)cccc3Cl)cccn12
5: CCc1nc2c(OCC3CCC3)cccn2c1C(=O)N[C@@H](C)CO [Example 58, formic acid salt]
Request: Descending sort on MEC (minimal effective concentration) required. Answer by listing the labels in the requested order.
Result: 5, 2, 3, 4, 1
(5: 3.0 µM, 2: 1.0 µM, 3: 0.65 µM, 4: 0.3 µM, 1: 0.1 µM)

I: Cc1nc2c(OCc3c(F)cccc3F)cccn2c1C(=O)NCCCO
II: CCCC[C@@H](NC(=O)c1c(C)nc2c(OCc3c(F)cccc3F)cccn12)C(O)C(F)(F)F (stereo partly drawn) [Example 142]
Request: Compare the recorded MEC (minimal effective concentration) of I and II ; state which is larger. Refer to your chosen entry by its label in the reply.
Result: I

This collection of values is drawn from patent US8946215B2.
